- Tested on: HOP-62 NSCLC
- measurement.protocol: NCI-60 one-dose screen, 48 h
- condition.details: 10 µM unless noted
Compounds without any hit were thinned out: in the full panel of roughly 83,000, 20% have a hit. Active and inactive are the calls of the source. Rule for the calls: active = growth percent below 10; inactive = the rest.
Possible outcomes: T = active, F = inactive

• Nc1c(C(=O)Nc2cccc3ccccc23)sc2nc3c(cc12)COCC3 = F
• CN1CCN(/C=C2\CC(C(=O)NCc3ccc(Cl)cc3Cl)NC2=O)CC1 (stereo not given) = F
• CCN1CCC[C@H]1c1cc(O)c2c(c1OC)C[C@H]1C[C@H]3[C@H](N)C(=O)C(C(N)=O)=C(O)[C@@]3(O)C(=O)C1=C2O = T
• Cc1cccc2nc3c(n12)C(=O)C(=O)c1ccccc1-3 = F
• COc1cc(/C=C/C(=O)/C=C/c2cc3ccc(Cl)cc3n(Cc3ccccc3)c2=O)ccc1O = T

* * *

Quick list: growth per entry.
- System: TK-10 renal
- measurement.protocol: NCI-60 one-dose screen, 48 h (100 = growth as untreated, 0 = no growth, -100 = all killed)
- condition.details: 10 µM unless noted
Compounds without any hit were thinned out: in the full panel of roughly 83,000, 20% have a hit.
readout: growth (%)

- Cc1cccc(NC(=O)c2sc3nc4c(cc3c2N)CN(Cc2ccccc2)CC4)c1C: 59
- CCc1n(Cc2ccc3ccccc3c2)c2ccccc2[n+]1Cc1ccc2ccccc2c1: 75.5
- Cc1nc2sc(C(=O)Nc3cccc(Cl)c3C)c(N)c2cc1C(C)O (stereo not given): 46.3
- CC(=O)Oc1ccc(O)cc1: 112
- COc1c(O)cc2oc3cc(O[C@@H]4OC(C)[C@@H](O)[C@H](O)C4O)c(CC=C(C)C)c(O)c3c(=O)c2c1CC=C(C)C (stereo not given in full): 92.6

* * *

Quick list: growth per entry.
- System: NCI-H23 lung
- measurement.protocol: NCI-60 one-dose screen, 48 h (100 = growth as untreated, 0 = no growth, -100 = all killed)
- condition.details: 10 µM unless noted
The panel holds about 83,000 compounds, 20% with a hit somewhere; the sample as a whole holds those more often.
readout: growth (%)

• Nc1c(C(=O)Nc2ccccn2)sc2nc3c(cc12)CCCC3 = 69
• C=C1C(=O)O[C@H]2[C@H]1CC/C(COC(=O)CCCCCCC(=O)OC/C1=C/CC[C@@]3(C)O[C@H]3[C@H]3OC(=O)C(=C)[C@@H]3CC1)=C\CC[C@@]1(C)O[C@@H]21 = 25.1
• CN(CCC#N)C(=O)Nc1ccccc1 = 101
• C/C(=N/Nc1nc2ccccc2n1C)c1ccccn1 = 6.57
• CCC1=C[C@H]2CN(CCc3c([nH]c4ccccc34)[C@@](C(=O)OC)(c3cc4c(cc3OC)N(C)[C@H]3[C@@](O)(C(=O)OC)[C@H](OC(C)=O)[C@]5(CC)[C@@H]6C[C@@H]6CN6CC[C@]43[C@@H]65)C2)C1 = 44
• Cc1ccccc1NC(=O)c1sc2nc(C)c(C(C)O)cc2c1N (stereo not drawn) = 79
• O=C(N/N=C/C[C@@H]1[C@@H](/C=C/[C@@H](O)COc2cccc(Cl)c2)[C@H](O)C[C@@H]1O)c1ccncc1 = 98.2
• O=C(O)c1cc(N=Nc2ccc(-c3ccc(N=Nc4c(S(=O)(=O)O)cc5ccc(Nc6ccccc6)cc5c4O)cc3)cc2)ccc1O = 92.6
• COc1cc2c(Nc3ccc(NC(=O)Nc4ccc(Cl)c(C(F)(F)F)c4)c(Cl)c3)ncnc2cc1OCCCN1CCN(C)CC1 = 17.2
• Nc1cc(N)c(S(=O)(=O)O)cc1N=Nc1cc([N+](=O)[O-])ccc1O = 94.5
• CCOC(=O)c1c(C)nc2c(c1N)/C(=C/c1ccc[nH]1)C(=O)N2Cc1ccc(C(F)(F)F)cc1 = 51.8
• COc1cc(C)ccc1Oc1nc(Nc2ccc(N3CCOCC3)cc2)ncc1N=Cc1cc(C(F)(F)F)cc(C(F)(F)F)c1 = 70.4
• CSc1nc(-c2ccco2)c2c(N)[nH]nc2n1 = 97.7
• N#CCNc1ccc(C(=O)O)cc1 = 101
• Cc1ccc(C(=O)O)o1 = 100
• Cc1cccc(NC(=O)c2sc3nc4c(cc3c2N)CN(Cc2ccccc2)CC4)c1C = 51.3
• O=C(Nc1cc(Br)ccn1)c1cc2cc(Nc3nc(-c4ccccc4)nc4ccccc34)ccc2oc1=O = 98.6
• COc1ccc(N(C)c2nc(Cl)nc3ccn(C)c23)cc1 = 27

* * *

Quick list: growth per entry.
- Test system: SF-295 CNS
- measurement.protocol: NCI-60 one-dose screen, 48 h (100 = growth as untreated, 0 = no growth, -100 = all killed)
- condition.details: 10 µM unless noted
About 83,000 compounds went through this panel and 20% of them were active in at least one assay; those are over-represented in the sample as a whole.
readout: growth (%)

- Cc1c(Cl)cccc1NC(=O)c1sc2nc3c(cc2c1N)CCCCC3: 32
- S=C(Nc1ccccc1)c1ccccn1: 114
- COc1ccc2nc(-c3ccc(Cl)cc3)cc(-c3nnc(SCC(=O)Nc4ccc(/C(C)=N\O)cc4)o3)c2c1: 43
- Cc1c(O)c(=O)ccn1-c1nc2ccccc2s1: 105
- CSc1nc(-c2ccc(F)cc2)c(C#N)c(N2CCOCC2)n1: 92.2
- CCCn1c(N)c(C(N)=O)sc1=S: 115
- CC1(c2ccccc2Cl)NC(=O)NC1=O (stereo not given): 97.1
- COc1ccc(C(C)c2cc(OC)c(OC)c(OC)c2)cc1 (stereo not given): 15.6
- COCCc1n(Cc2ccc3ccccc3c2)c2ccccc2[n+]1Cc1ccc2ccccc2c1: -32.7
- COc1ccc(-c2nc(C#N)c(NCC(c3ccc(Cl)cc3)N3CCCCC3)o2)cc1 (stereo not given): 96.1
- O=C(CN1N=C(c2ccc(F)cc2)CCC1=O)Nc1nccs1: 97.3
- C#C[C@@]1(O)[C@@H](CO)O[C@@H](n2cc(Cl)c3c(N)ccnc32)[C@@H]1O: 81.9
- Cc1ccc(C2CC(c3ccc(Nc4nc(NCCO)nc(NCCO)n4)cc3)=NN2c2ccc(Cl)cc2)cc1 (stereo not given): 30.3
- COc1ccc(Nc2cc(NC(=O)CNc3cc(OC)c(Cl)c(OC)c3Cl)ncn2)cc1: 76.4
- COc1ccc2[nH]c3nc4cnccc4cc3c2c1: 114
- CN(C)c1ccc(-c2ccc3[nH]c(=O)nc(-c4ccc(F)cc4)c3c2)cn1: 21.5
- N#Cc1c(-c2ccc(F)cc2)c(C#N)c2c(C#N)c(N)nn2c1N: 101
- CCOC(=O)c1c(C)nc2c(c1N)/C(=C/c1cccs1)C(=O)N2c1ccc(OC)cc1: 47.2
- O=C(CCCCCCCCC(=O)Nc1cccc(C2=NCCN2)c1)Nc1cccc(C2=NCCN2)c1: 99.9
- O=S(=O)(O)c1ccc(N=NSc2ccc3ccccc3c2)cc1: 97.4
- CCCCc1n(Cc2ccc3ccccc3n2)cc[n+]1Cc1ccc2ccccc2c1: 0.543
- Nc1ccc2c(c1)C(=O)C(=O)c1c-2nc2ccccn12: -67.6
- COc1ccc(-n2nc(C(=O)NCC(=O)O)nc2-c2ccccc2)cc1: 107
- CN(C)CSc1nc2ccccc2s1: 92.8
- Cc1nc2sc(C(=O)Nc3ccccc3Cl)c(N)c2cc1C(C)O (stereo not given): 84.3
- CC(C)Cc1cc(CNC(=O)C2[C@H]3CN(C(=O)c4ccccc4)C[C@@H]23)nn1-c1ccccc1 (stereo not given in full): 101
- Cc1nccc2c3ccc(OCc4cn(-c5ccccc5)nn4)cc3n(CCCc3ccccc3)c12: 74.8
- COc1c(O)cc2oc3cc(O[C@@H]4OC(C)[C@@H](O)[C@H](O)C4O)c(CC=C(C)C)c(O)c3c(=O)c2c1CC=C(C)C (stereo not given in full): 93.3
- COc1ccc2c(c1)OC13Oc4cc(OC)ccc4C=C1CCCCC3=C2: 96.8
- COC(=O)c1ccc(NC(=O)CSc2nc(-c3ccc(F)cc3)nc3ccccc23)cc1: 86.2
- C=C(C)[C@@H]1CC[C@]2(C(=O)N=C=S)CC[C@]3(C)[C@H](CC[C@@H]4[C@@]5(C)CCC(=O)C(C)(C)[C@@H]5CC[C@]43C)[C@@H]12: 36
- CCO/C=N/S(=O)(=O)c1cc2c(cc1Cl)NC=NS2(=O)=O: 104
- C=C(C)[C@@H]1CC[C@]2(C(=O)NCCCO)CC[C@]3(C)[C@H](CC[C@@H]4[C@@]5(C)CCCNC(C)(C)[C@@H]5CC[C@]43C)[C@@H]12: 89.3
- CCCn1c2cc(OCc3cn(-c4ccc(Cl)cc4)nn3)ccc2c2ccnc(C)c21: 81.6
- COc1ccc(/C=C/C(=O)c2ccc(NC(=O)CSc3nnc(-c4ccc(OC)c(OC)c4)n3-c3ccccc3)cc2)cc1: 91.4
- Nc1ccc(C2=NN(C(=O)c3cc(-c4ccc(Cl)cc4)nc4ccccc34)C(c3ccc(Cl)cc3)C2)cc1 (stereo not given): 18.2
- CCOc1ccc(C2N(c3cc(OC)c(OC)c(OC)c3)C(=O)C2(F)F)cc1 (stereo not given): 56.3
- C=C1C(=O)O[C@H]2[C@H]1CC/C(COC(=O)CCCCC(=O)OC/C1=C/CC[C@@]3(C)O[C@H]3[C@H]3OC(=O)C(=C)[C@@H]3CC1)=C\CC[C@@]1(C)O[C@@H]21: 101
- COc1ccc(N(C)c2nc(Cl)nc3ccn(C)c23)cc1: 15.5
- Cc1nnc(/N=C2\NC(=O)/C(=C/c3ccc(N(C)C)cc3)S2)s1: 47.9
